# System: LOX IMVI
# procedureSummary: NCI tumour cell line growth inhibition, 48 h
Calls of active or inactive are those of the source. No stated cut-off is given here; in the data, active = GI50 up to about 1.1 µM and inactive = higher.
attributeMeasured: GI50

molecule=CCOC(=O)c1cc2cc(CSc3ccccc3)ccc2oc1=O subjectoftest="LOX IMVI" assayresult="> 100 µM (inactive)"

GI50 for CC1(C)C2CCC3=C(CCC4(C)C5C[C@](C)(C(=O)O)CC[C@]5(C)CC[C@]34C)[C@@]2(C)CC[C@@H]1O (stereo not given in full) ?
14.8 µM (inactive)

// same read-out, input: "O=c1c2ccccc2nc(N/N=C/c2ccc([N+](=O)[O-])cc2)n1-c1ccccc1"
3.08 µM (inactive)

And "O=C(Nc1ccc(Cl)cc1Cl)C1C(=O)OC2(CCCCC2)OC1=O" ?
6.22 µM (inactive)

Could you do the same for "CC(=O)c1ccccc1NCC(=O)Nn1cnc2ccc(S(=O)(=O)Nc3ccccc3C(C)=O)cc2c1=O" , please?
> 100 µM (inactive)
